# Test system: RPMI-8226 leukemia
# assay.details: NCI tumour cell line growth inhibition, 48 h

molecule: Cc1cc2nc3c(C)c4ccccc4c(C)n3c2cc1C
TGI: > 10 µM

molecule: O=C1C(Nc2ccc(S(=O)(=O)Nc3cnc4ccccc4n3)cc2)=CC(=Nc2ccc(S(=O)(=O)Nc3cnc4ccccc4n3)cc2)c2ccccc21
TGI: > 77.8 µM

molecule: S=C1NC(c2ccccc2)NC(c2ccccc2)S1 (stereo not given)
TGI: > 100 µM

molecule: Cc1nc(-n2nc(-c3ccccc3)cc2-c2ccccc2)sc1C(/C=C\c1ccc([N+](=O)[O-])cc1)=N/NC(=S)NN
TGI: > 100 µM

molecule: Nc1ccc2ncc(NCc3ccc(F)cc3)nc2c1
TGI: > 100 µM

###

# System: A498 renal
# assay.details: NCI tumour cell line growth inhibition, 48 h
measurement.kind: TGI

compound: NC(=O)C1CCCN1Cc1ccc2c(c1)OCO2 (stereo not drawn)
assay.result: > 100 µM

compound: OCC1OC(NO)C(O)C(O)C1O (stereo not drawn)
assay.result: > 100 µM

compound: OC(CBr)C(O)C(O)C(O)CBr (stereo not drawn)
assay.result: > 100 µM

###

# Tested on: NCI-H226 lung
# assay.details: NCI tumour cell line growth inhibition, 48 h

compound: O=S(=O)(O)c1ccc([Se][Se]c2ccc(S(=O)(=O)O)cc2)cc1
TGI: > 100 µM

compound: Cn1cnc([N+](=O)[O-])c1Sc1nnc(-c2ccc(Cl)cc2)n1C
TGI: 65.9 µM

compound: CCC(/C(=N/NC(=O)C[N+](C)(C)C)c1ccccc1)C1OC(=O)c2ccccc21 (centres undefined)
TGI: > 100 µM

compound: OCC1OC(NO)C(O)C(O)C1O (centres undefined)
TGI: > 100 µM

compound: CCCCCCCCCCCCCC(=O)OCC1OC(=O)C(O)C1O (centres undefined)
TGI: > 100 µM

compound: CCN(CC(O)COc1ccc2c(c1)[n+]([O-])nc(N)[n+]2[O-])C(C)=O (centres undefined)
TGI: > 100 µM

compound: COc1ccc(N2CCN(c3nc(-c4ccccn4)nc4sc5c(c34)CCCCCC5)CC2)cc1
TGI: > 100 µM

compound: COc1cc(/C=[N+](\[O-])c2ccccc2Cl)ccc1OC(=S)S
TGI: > 100 µM

compound: COc1ccc(C2CC(=O)Nc3c2c(C)nn3-c2nc3ccccc3[nH]2)cc1OC (centres undefined)
TGI: 14.1 µM

compound: CCc1c[n+]2c(cc1C1=CN3c4ccccc4[C@]45CCN6C/C(=C/CO)[C@H](C[C@H]64)[C@@H]([C@@H]1O)[C@H]35)-c1[nH]c3ccccc3c1CC2
TGI: > 50 µM

compound: O=C1NC(=O)/C(=C/c2ccc3nccc(-c4ccncc4)c3c2)S1
TGI: 2.76 µM

compound: Cc1ccc(C2=C(c3ccccc3)C(O)(c3ccccc3)C(c3ccccc3)=C2c2ccc(C)cc2)cc1
TGI: > 100 µM

compound: O=C(Nc1c(Cl)cccc1Cl)Oc1cccc2cccnc12
TGI: 21.7 µM

compound: CCOC1=C2N=C(C(CC)c3ccc(F)cc3)N=C2C(=O)c2ccccc21 (centres undefined)
TGI: 41.6 µM

compound: O=C(C#Cc1ccccc1)Nc1ccccc1CC(c1c[nH]c2ccccc12)c1c[nH]c2ccccc12
TGI: 35.2 µM

compound: NC(=O)C1CCCN1Cc1ccc2c(c1)OCO2 (centres undefined)
TGI: > 100 µM

compound: COC(=O)[C@@]1(Cc2ccc(OC(C)=O)cc2)Cc2cc3ccccc3n2N1
TGI: > 100 µM

compound: Cc1ccnc2[nH]c(-c3ccc(Cl)cc3)cc(=O)c12
TGI: > 30.7 µM

compound: CCCCCCCCC/C=C1/CC(CO)(COC(=O)C2CCCCC2)OC1=O (centres undefined)
TGI: > 100 µM

compound: C1=Nc2ccc(cc2)-c2ccc(cc2)N=Cc2ccccc2OCc2cccc(n2)COc2ccccc21
TGI: > 100 µM

compound: COC(=O)/C(=C1\OC(=O)C(c2ccc(Cl)cc2)=C1O)c1ccc(Cl)cc1
TGI: 58.5 µM

compound: NC1=NN(c2ccccc2)C(=O)C1/C(=N\NC(=O)c1cc2ccccc2cc1O)C(=O)Nc1ccc(Cl)c(Cl)c1 (centres undefined)
TGI: > 100 µM

compound: OCC1OC(n2cnc3cc(Cl)c(Cl)cc32)C(O)C1O (centres undefined)
TGI: 35.3 µM

compound: O=C(COc1ccc(Cl)cc1Cl)NNc1ccc([N+](=O)[O-])cc1
TGI: > 100 µM

###

Below is a list of entries, each paired with its recorded TGI value.
# Test system: OVCAR-8 ovarian
# assay.details: NCI tumour cell line growth inhibition, 48 h

molecule: C=C1CC2(CC(c3ccccc3C)OC(c3ccccc3C)C2)OC1=O (stereo unspecified)
units.symbol: µM
value.qualifier: =
TGI: 4.63
--
molecule: CC(=O)OC1CC[C@@]2(C)C(=CC[C@@H]3[C@@H]2CC[C@]2(C)Nc4c(cnn4-c4ccc(F)cc4)C[C@@H]32)C1 (stereo partly specified)
units.symbol: µM
value.qualifier: >
TGI: 100
--
molecule: CCN(CC)CCNC(=O)C1COc2ccc(-c3cc(=O)c4ccccc4o3)cc2O1 (stereo unspecified)
units.symbol: µM
value.qualifier: =
TGI: 33.4
--
molecule: CCOP(=O)(OCC)C(Cc1cn(S(=O)(=O)c2ccc(C)cc2)cn1)C(=O)O (stereo unspecified)
units.symbol: µM
value.qualifier: >
TGI: 100
--
molecule: C[C@]12CC[C@@H]3c4cc(C=O)c(OCc5ccccc5)cc4CC[C@H]3[C@@H]1CCC2OCc1ccccc1 (stereo partly specified)
units.symbol: µM
value.qualifier: >
TGI: 100
--
molecule: Cc1ccc(C2=C(c3ccccc3)C(O)(c3ccccc3)C(c3ccccc3)=C2c2ccc(C)cc2)cc1
units.symbol: µM
value.qualifier: >
TGI: 100
--
molecule: CCN1CC2(CO)CCC(OC)C34C5CC6C(OC)CC(O)(C5C6OC)C(O)(C(OC)C23)C14 (stereo unspecified)
units.symbol: µM
value.qualifier: >
TGI: 375
--
molecule: CC(=O)OCc1cc[c]([Hg][Cl])o1
units.symbol: µM
value.qualifier: =
TGI: 57.7
--
molecule: Cc1nc(-n2nc(-c3ccccc3)cc2-c2ccccc2)sc1C(/C=C\c1ccc([N+](=O)[O-])cc1)=N/NC(=S)NN
units.symbol: µM
value.qualifier: =
TGI: 28.6
--
molecule: CCOC(=O)C1=C(C)NC(c2ccccc2)=C(C(=O)OCc2ccccc2)C1C#Cc1ccccc1 (stereo unspecified)
units.symbol: µM
value.qualifier: >
TGI: 100
--
molecule: Fc1ccc(Nc2ccnc(N3CCN(c4ccnc5cc(Cl)ccc45)CC3)n2)cc1
units.symbol: µM
value.qualifier: =
TGI: 6.12

###

# Test system: HS 578T breast
# assay.details: NCI tumour cell line growth inhibition, 48 h
Below is a list of entries, each paired with its recorded TGI value.

molecule: O=C(/C=C/c1cc2ccccc2[nH]c1=O)c1ccc(O)cc1
TGI: > 100 µM
//
molecule: N/C(=N/O)NOCCC(N)C(=O)O (stereo not drawn)
TGI: > 100 µM
//
molecule: C=C1[C@H](O)C[C@@H](C(C)C(O)CC=C(C)C)[C@@H](O)[C@@H]2C(C)=CC[C@@H]12 (stereo partly drawn)
TGI: > 100 µM

###

Below is a list of entries, each paired with its recorded TGI value.
# System: SW-620 colon
# assay.details: NCI tumour cell line growth inhibition, 48 h

compound: Cc1cc(S(=O)(=O)Nc2nc3ccccc3s2)c(SCc2ccccc2)cc1Cl
TGI: 37.6 µM

compound: O=c1[nH]c(C2CCCCC2)nc2ccc(Cl)cc12
TGI: > 100 µM

compound: CNC(=O)/C(C#N)=C(\N)N1CCCC1
TGI: > 100 µM

compound: COC(=O)C1(N2CCOCC2)CCC([C@@H](c2ccccc2)C(C)[N+](=O)[O-])C1 (stereo partly drawn)
TGI: > 100 µM

compound: CCn1c(C)nc([N+](=O)[O-])c1Sc1ncc[nH]1
TGI: > 100 µM

compound: O=C(NNC(=O)/C(=C/c1cccc([N+](=O)[O-])c1)NC(=O)c1ccccc1)Nc1ccc(Cl)cc1
TGI: 28.5 µM

compound: Cn1cc(-c2nc(-c3c[nH]c4ccccc34)cs2)c2cccnc21
TGI: > 100 µM

compound: C=CCNc1nc2c(N)ncnc2s1
TGI: > 10 µM

compound: COc1ccc(C2=Nn3c(nc4sc5c(c4c3=O)CCCC5)SC2)cc1
TGI: > 100 µM

compound: CCN(Cc1c(F)cccc1C(F)(F)F)c1ccc(CO)c(Cl)c1
TGI: 20.4 µM

compound: CCOC(=O)C1=C(C)NC(c2ccccc2)=C(C(=O)OCc2ccccc2)C1C#Cc1ccccc1 (stereo not drawn)
TGI: > 100 µM

compound: Nc1nc2c(nnn2C2C=C(CO)C(O)C2O)c(=O)[nH]1 (stereo not drawn)
TGI: > 100 µM

compound: CC(C)C(N=C1CC2CCC1(C(=O)Nc1ccccc1O)C2(C)C)c1ccccc1 (stereo not drawn)
TGI: > 10 µM
